target.of.assay: Aminopeptidase B (His-rAp-B) (Rattus norvegicus)
Construct: gene Rnpep; His-tagged full-length rat Ap-B (673 residues incl. His-tag/Factor Xa site; 650-residue Ap-B) from E. coli
assay.explanation: L-Arg-β-NA hydrolysis assay with recombinant enzyme; Ki and percent inhibition ([…] at […])
Assay type: biochemical
parameter.measured: pKi
Give bare numbers, as −log10 of the molar value.

// query Given the entry NC(N)=NCCC[C@H](N)C(=O)C[C@@H](Cc1ccccc1)C(=O)O [Arphamenine A] , report its measured pKi.
// result 7.70

====

target.of.assay: Aminopeptidase B (His-rAp-B) (Rattus norvegicus)
Construct: gene Rnpep; His-tagged full-length rat Ap-B (673 residues incl. His-tag/Factor Xa site; 650-residue Ap-B) from E. coli
Sequence (O09175 1-650): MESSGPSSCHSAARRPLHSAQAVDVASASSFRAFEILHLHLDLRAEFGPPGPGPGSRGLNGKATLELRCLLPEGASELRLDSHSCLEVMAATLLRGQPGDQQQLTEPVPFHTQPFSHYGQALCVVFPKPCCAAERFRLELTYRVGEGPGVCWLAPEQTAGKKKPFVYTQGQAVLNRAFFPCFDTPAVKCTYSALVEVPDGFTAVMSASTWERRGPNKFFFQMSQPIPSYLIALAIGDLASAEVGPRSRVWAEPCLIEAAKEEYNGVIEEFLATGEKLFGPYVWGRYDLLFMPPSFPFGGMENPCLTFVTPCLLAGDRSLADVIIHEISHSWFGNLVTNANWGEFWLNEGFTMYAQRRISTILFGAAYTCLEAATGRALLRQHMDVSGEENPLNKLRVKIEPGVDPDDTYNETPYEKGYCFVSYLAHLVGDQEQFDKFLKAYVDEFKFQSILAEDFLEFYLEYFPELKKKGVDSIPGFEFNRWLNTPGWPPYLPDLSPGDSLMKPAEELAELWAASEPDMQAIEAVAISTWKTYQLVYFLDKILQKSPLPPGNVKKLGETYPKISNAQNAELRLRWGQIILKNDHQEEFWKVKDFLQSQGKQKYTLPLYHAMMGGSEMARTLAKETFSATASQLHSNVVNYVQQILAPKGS
assay.explanation: L-Arg-β-NA hydrolysis assay with recombinant enzyme; Ki and percent inhibition ([…] at […])
Assay type: biochemical
parameter.measured: Ki (nM)
One number for each entry, in nM.

// query Value wanted: Ki (Aminopeptidase B (His-rAp-B) (Rattus norvegicus)) of entry CC(C)C[C@H](NC(=O)[C@@H](O)[C@H](N)Cc1ccccc1)C(=O)O
// result 50
